Target desc: T1, recombinant cynomolgus Nectin-4 (Acro Biosystems) (cynomolgus, UniProt A0A2K5WES1 32-349)
T1 construct: Bought recombinant antigen used as analyte in SPR; also called Cyno Nectin-4
T1 sequence: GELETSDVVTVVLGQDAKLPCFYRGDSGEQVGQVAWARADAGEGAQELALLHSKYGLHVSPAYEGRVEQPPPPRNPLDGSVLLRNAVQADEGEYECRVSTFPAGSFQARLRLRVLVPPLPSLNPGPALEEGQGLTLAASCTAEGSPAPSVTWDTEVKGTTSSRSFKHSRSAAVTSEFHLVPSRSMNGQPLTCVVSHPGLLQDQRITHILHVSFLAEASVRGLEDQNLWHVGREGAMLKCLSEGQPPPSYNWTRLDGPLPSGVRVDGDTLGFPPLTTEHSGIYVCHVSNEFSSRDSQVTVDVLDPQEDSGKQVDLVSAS
Experiment description: SPR, Biacore T200 single cycle kinetics at 25 C, IgG from culture supernatant, Nectin-4 as analyte
pKd: −log10 of the molar value.

Binder	pKd
NTX1105 humanized variant VH4/Vκ4 (antibody, V domains shown, Humanized IgG) VH: QVQLVQSGSELKKPGASVKVSCKASGYTFTSYYIHWVRQAPGQGLEWIGWIYPGNVNTKYNERFKGRVTITADKSTNTAYMELSSLRSEDTAVYYCARSNPYVMDYWGQGTSVTVSS VL: DIQMTQSPSTLSASVGDRVTITCRASQSVNNDVAWYQQKPGKAPKLLMYYASNRFTGVPDRFSGSGYGTDFTLTISSLQAEDLAIYFCQQAYRSPYTFGQGTKLEIK	7.67
NTX1105 humanized variant VH5/Vκ4 (antibody, V domains shown, Humanized IgG) VH: QVQLVQSGSELKKPGASVKVSCKASGYTFTSYYIHWVRQAPGQGLEWMGWIYPGNVNTKYNERFQGRVTITADKSTSTAYMELSSLRSEDTAVYYCARSNPYVMDYWGQGTSVTVSS VL: DIQMTQSPSTLSASVGDRVTITCRASQSVNNDVAWYQQKPGKAPKLLMYYASNRFTGVPDRFSGSGYGTDFTLTISSLQAEDLAIYFCQQAYRSPYTFGQGTKLEIK	7.72
NTX1105 humanized variant VH5/Vκ5 (antibody, V domains shown, Humanized IgG; also called H5K5) VH: QVQLVQSGSELKKPGASVKVSCKASGYTFTSYYIHWVRQAPGQGLEWMGWIYPGNVNTKYNERFQGRVTITADKSTSTAYMELSSLRSEDTAVYYCARSNPYVMDYWGQGTSVTVSS VL: DIQMTQSPSTLSASVGDRVTITCRASQSVNNDVAWYQQKPGKAPKLLMYYASNRFTGVPDRFSGSGYGTDFTLTISSLQAEDVAVYFCQQAYRSPYTFGQGTKLEIK	7.90
NTX1105 humanized variant VH4/Vκ3 (antibody, V domains shown, Humanized IgG) VH: QVQLVQSGSELKKPGASVKVSCKASGYTFTSYYIHWVRQAPGQGLEWIGWIYPGNVNTKYNERFKGRVTITADKSTNTAYMELSSLRSEDTAVYYCARSNPYVMDYWGQGTSVTVSS VL: DIQMTQSPSTLSASVGDRVTITCKASQSVNNDVAWYQQKPGKAPKLLMYYASNRFTGVPDRFSGSGYGTDFTLTISSLQAEDLAIYFCQQAYRSPYTFGQGTKLEIK	7.71
NTX1105 humanized variant VH4/Vκ5 (antibody, V domains shown, also called NTX1105 (H4/k5); H4K5) VH: QVQLVQSGSELKKPGASVKVSCKASGYTFTSYYIHWVRQAPGQGLEWIGWIYPGNVNTKYNERFKGRVTITADKSTNTAYMELSSLRSEDTAVYYCARSNPYVMDYWGQGTSVTVSS VL: DIQMTQSPSTLSASVGDRVTITCRASQSVNNDVAWYQQKPGKAPKLLMYYASNRFTGVPDRFSGSGYGTDFTLTISSLQAEDVAVYFCQQAYRSPYTFGQGTKLEIK	7.86
NTX1105 humanized variant VH4/Vκ1 (antibody, V domains shown, Humanized IgG) VH: QVQLVQSGSELKKPGASVKVSCKASGYTFTSYYIHWVRQAPGQGLEWIGWIYPGNVNTKYNERFKGRVTITADKSTNTAYMELSSLRSEDTAVYYCARSNPYVMDYWGQGTSVTVSS VL: SIVMTQSPSFLLASAGDRVTITCKASQSVNNDVAWYQQKPGLAPELLMYYASNRFTGVPDRFTGSGYGTDFTLTISSLQAEDLAIYFCQQAYRSPYTFGQGTKLEIK	7.71
NTX1105 (VH0/Vκ0) parental chimeric anti-Nectin-4 antibody, clone-11 (VH0/Vκ0)-hIgG1 (antibody, V domains shown, Tested from supernatants of transfected cell cultures; also called chimeric antibody; parental mAb) VH: QVQLQQSGPELVKPETSVKISCKASGYTFTSYYIHWVKQRPGQGLEWIGWIYPGNVNTKYNERFKGKATLTADKSSNTAHMQLTSLTSEDSAVYFCARSNPYVMDYWGQGTSVTVSS VL: SIVMTQTPKFLLVSAGDRVTITCKASQSVNNDVAWYQQKPGLSPELLMYYASNRFTGVPDRFTGSGYGTDFTFTISSVQAEDLAIYFCQQAYRSPYTFGGGTKLEIQR	7.92

The reported measurements were obtained from patent US20260014269A1.
